test system: MS2 coat protein; assay: apparent KD of MS2 coat protein; designed switch direction (-1 OFF switch, 1 ON switch): 1; higher = weaker reporter binding; settings: input ligand: microRNA oligo, concentration not stated
The reader will find reported apparent KD of MS2 coat protein values listed item by item below.
Express the result in nM but write the number alone.

As a guide, the following entries are already answered.
INSERT INTO results (query_sequence, endpoint_value) VALUES
  ('UUAUCCUUUUUUUACAUGAGGAUCACCCAUGUUUUUCUUACGUAGGAUAUCGUUGUUUUUUUUUACGAGAAGGACGUAGUAUGU [JR_SSND3_Sub062] (Eterna round: R96, puzzle: Same State NG 3)', 30.4),
  ('AACAAUCUAUCUGAGGAUAUCAUGAAAUAAACAUGAGGAUCACCCAUGUGCAGGAAAUCUGCAUAUGAGAAGGCAGAUAGAUUGA [salish99_ss2_r3_043] (Eterna round: R96, puzzle: Same State 2)', 672),
  ('GGUAAGAAUUAAGGAUAUCGAGUACAUAUGUUUAACAUGAGGAUCACCCAUGUGGGUUGCGGUAUCGAGAAGGUAAAUUAUAAG [Mat - same State NG 2 - JL mod - D63] (Eterna round: R96, puzzle: Same State NG 2)', 29.7),
  ('UGAAUAUUUACAGGAUAUGAGUUGUAUAGUGGGUCAGAAGGGUGGGUGUUUUGCACGGUGUGUUACAUGAGGAUCACCCAUGUU [SameState NG1 #27] (Eterna round: R96, puzzle: Same State NG 1)', 74.5),
  ('CCUAUAGCCACAGGAUAUGAGAACACGUUGAACGUACAUGAGGAUCACCCAUGUCGCCGAUCGACUUAGAAGGGUGGCCCUCGC [Eternabot solution 26] (Eterna round: R96, puzzle: Same State NG 2)', 37.9);

Q) Report apparent KD of MS2 coat protein, nothing else, for this sequence: AGAUCAUGACGAGGAUAUGCCACAUGAGGAUCACCCAUGUAUGUGGUAGGACGGAAACGUCCAAAGCAGAAGGCGUCGUGGUCA [Mat - Same State NG 2 - JL mod - D35] (Eterna round: R96, puzzle: Same State NG 2)
A) 44.8
